Measured Ratio IC50 of individual entries
ASSAY METHOD TEXT: Selectivity index, ratio of IC50 for antiproliferative activity against human MCF7 cells assessed as inhibition of cell growth to IC50 for antiproliferative activity against human MCF7ADR cells assessed as inhibition of cell growth
Assay type: functional
ENDPOINT LABEL: Ratio IC50

>>> reported_value("O=S(=O)(c1ccccc1)c1c(OCCCOc2ccc3cc2Oc2ccc(cc2)CCc2cccc(OCCCOc4no[n+]([O-])c4S(=O)(=O)c4ccccc4)c2Oc2cccc(c2)CC3)no[n+]1[O-]")
21
>>> reported_value("COc1cccc2c1C(=O)c1c(O)c3c(c(O)c1C2=O)C[C@@](O)(C(=O)CO)C[C@@H]3O[C@H]1C[C@H](N)[C@H](O)[C@H](C)O1 [DOXORUBICIN]")
"<0.001"
>>> reported_value("O=C(/C=C\\COc1no[n+]([O-])c1S(=O)(=O)c1ccccc1)Oc1cccc2c1Oc1cccc(c1)CCc1ccc(O)c(c1)Oc1ccc(cc1)CC2")
"<5"
>>> reported_value("O=S(=O)(c1ccccc1)c1c(OCCCCOc2cccc3c2Oc2cccc(c2)CCc2ccc(O)c(c2)Oc2ccc(cc2)CC3)no[n+]1[O-]")
">204"

----------
Recorded pIC50 by entry
Test system: NCI/ADR-RES
ASSAY METHOD TEXT: Antiproliferative activity against human MCF7ADR cells assessed as inhibition of cell growth incubated for 48 hrs by MTT assay
Assay type: functional, cell-based
pIC50: −log10 of the molar value.
ENDPOINT LABEL: pIC50

>>> reported_value("O=S(=O)(c1ccccc1)c1c(OCCCOc2ccc3cc2Oc2ccc(cc2)CCc2cccc(OCCCOc4no[n+]([O-])c4S(=O)(=O)c4ccccc4)c2Oc2cccc(c2)CC3)no[n+]1[O-]")
6.00
>>> reported_value("O=S(=O)(c1ccccc1)c1c(OCCOc2cccc3c2Oc2cccc(c2)CCc2ccc(O)c(c2)Oc2ccc(cc2)CC3)no[n+]1[O-]")
6.05
>>> reported_value("O=S(=O)(c1ccccc1)c1c(OCCCCOc2cccc3c2Oc2cccc(c2)CCc2ccc(O)c(c2)Oc2ccc(cc2)CC3)no[n+]1[O-]")
7.01
>>> reported_value("O=C(CCCOc1no[n+]([O-])c1S(=O)(=O)c1ccccc1)Oc1ccc2cc1Oc1ccc(cc1)CCc1cccc(OC(=O)CCCOc3no[n+]([O-])c3S(=O)(=O)c3ccccc3)c1Oc1cccc(c1)CC2")
6.17

----------
ASSAY METHOD TEXT: Selectivity index, ratio of IC50 for antiproliferative activity against human A549 cells assessed as inhibition of cell growth to IC50 for antiproliferative activity against human A549/Taxol cells assessed as inhibition of cell growth
Format: functional
ENDPOINT LABEL: Ratio IC50

>>> reported_value("O=S(=O)(c1ccccc1)c1c(OCCCCCCOc2cccc3c2Oc2cccc(c2)CCc2ccc(O)c(c2)Oc2ccc(cc2)CC3)no[n+]1[O-]")
">6"
>>> reported_value("O=S(=O)(c1ccccc1)c1c(OCCCCOc2cccc3c2Oc2cccc(c2)CCc2ccc(O)c(c2)Oc2ccc(cc2)CC3)no[n+]1[O-]")
">7"
>>> reported_value("CC(=O)CCCCn1c(=O)c2c(ncn2C)n(C)c1=O [PENTOXIFYLLINE]")
"<0.5"

----------
ASSAY METHOD TEXT: Cytotoxicity against human MCF-10A cells assessed as inhibition of cell growth incubated for 48 hrs by MTT assay
Type: toxicity, cell-based
ENDPOINT LABEL: IC50 at 48 h

>>> reported_value("O=S(=O)(c1ccccc1)c1c(OCCCCCCOc2cccc3c2Oc2cccc(c2)CCc2ccc(O)c(c2)Oc2ccc(cc2)CC3)no[n+]1[O-]")
"> 20 µM"
>>> reported_value("COc1cccc2c1C(=O)c1c(O)c3c(c(O)c1C2=O)C[C@@](O)(C(=O)CO)C[C@@H]3O[C@H]1C[C@H](N)[C@H](O)[C@H](C)O1")
"< 2.5 µM"
>>> reported_value("O=S(=O)(c1ccccc1)c1c(OCCOCCOc2cccc3c2Oc2cccc(c2)CCc2ccc(O)c(c2)Oc2ccc(cc2)CC3)no[n+]1[O-]")
"< 2.5 µM"
